# EXPERIMENTAL_TARGET: CB1 (mutant) (Homo sapiens, UniProt P21554)
# Sequence (P21554 1-417, change not shown): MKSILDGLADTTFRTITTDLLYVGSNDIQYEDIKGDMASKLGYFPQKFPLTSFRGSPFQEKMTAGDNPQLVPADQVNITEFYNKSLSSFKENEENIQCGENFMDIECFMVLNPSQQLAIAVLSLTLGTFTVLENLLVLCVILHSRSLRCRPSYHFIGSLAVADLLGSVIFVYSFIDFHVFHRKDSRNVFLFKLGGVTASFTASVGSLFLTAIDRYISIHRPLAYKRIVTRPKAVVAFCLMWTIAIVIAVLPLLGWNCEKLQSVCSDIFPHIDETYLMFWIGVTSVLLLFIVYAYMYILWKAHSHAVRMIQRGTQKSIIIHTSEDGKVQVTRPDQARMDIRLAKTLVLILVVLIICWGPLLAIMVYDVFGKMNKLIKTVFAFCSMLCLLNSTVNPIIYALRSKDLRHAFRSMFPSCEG
# EXPERIMENTAL_DETAILS: R-SAT functional receptor assay, CB1 (mutant, truncated after amino acid 417)
# Assay type: cell-based
# CONDITION_CONTEXT: Appendix A; R-SAT CB1; receptor form (mutant or wild-type) not stated; read-out: pIC50 (converted)
Simple rule here: IC50 less than 60 nM is TRUE, otherwise FALSE.

MOLECULE	ASSIGNED_CATEGORY
O=C(NC1CCCC1)c1ccc2c(c1)N=C(c1ccccc1F)c1ccccc1S2	FALSE
O=C(NC1CCCCNC1=O)c1ccc2c(c1)N=C(c1ccc(F)cc1)c1ccccc1S2 (stereo not drawn)	FALSE
O=C(NC1CCCC1)c1ccc2c(c1)N=C(c1ccc(Cl)c(Cl)c1)c1ccccc1S2 [drawing 672]	FALSE
CCCCNC(=O)c1ccc2c(c1)N=C(c1ccc(Cl)cn1)c1ccc(F)cc1S2 [drawing 632]	FALSE
CCCC1=Nc2cc(C(=O)NCCN3CCN(c4cccc(C)c4C)CC3)ccc2Sc2ccccc21	FALSE
CC(CNC(=O)c1ccc2c(c1)N=C(c1cccc(Cl)c1)c1cc(F)ccc1S2)c1ccccc1 (stereo not drawn) [drawing 879]	TRUE
CC(C)CCNC(=O)c1ccc2c(c1)N=C(c1ccccc1F)c1ccccc1S2 [drawing 1067]	TRUE
O=C(NCCc1ccc(Cl)cc1)c1ccc2c(c1)N=C(C1CCCCC1)c1ccccc1S2 [drawing 889]	TRUE
COc1ccc(C2=Nc3cc(C(=O)NC4CCCCNC4=O)ccc3Sc3ccccc32)cc1 (stereo not drawn)	FALSE

----------
# EXPERIMENTAL_TARGET: CB1 (mutant) (Homo sapiens, UniProt P21554)
# EXPERIMENTAL_DETAILS: R-SAT functional receptor assay, CB1 (mutant, truncated after amino acid 417)
# Type: cell-based
# CONDITION_CONTEXT: Appendix A; R-SAT CB1; receptor form (mutant or wild-type) not stated; read-out: pIC50 (converted)
Simple rule here: IC50 less than 10 nM is label 1, otherwise label 0.

COMPOUND	ASSIGNED_CATEGORY
O=C(NN1CCCCCC1)c1ccc2c(c1)N=C(c1ccc(Cl)cc1)c1ccccc1S2 [drawing 1041]	label 0
O=C(NCc1ccccc1Br)c1ccc2c(c1)N=C(C1CCCCC1)c1ccccc1S2 [drawing 548]	label 0
O=C(NCc1ccc(F)cc1)c1ccc2c(c1)N=C(N1CCCCC1)c1ccccc1S2 [drawing 611]	label 1
CCCNC(=O)c1ccc2c(c1)N=C(c1ccc(Cl)s1)c1ccccc1S2 [drawing 675]	label 1

----------
# EXPERIMENTAL_TARGET: CB1 (mutant) (Homo sapiens, UniProt P21554)
# EXPERIMENTAL_DETAILS: R-SAT functional receptor assay, CB1 (mutant, truncated after amino acid 417)
# Assay type: cell-based
# CONDITION_CONTEXT: Appendix A; R-SAT CB1; receptor form not stated; relative to SR141716 (100%); read-out: % Inhibition
Each entry below carries its recorded Emax.

MOLECULE	VALUE_UNIT	Emax
CCCC1=Nc2cc(C(=O)N3CCC(C(=O)OCC)CC3)ccc2Sc2ccccc21	%	108
O=C(NN1CCCCC1)c1ccc2c(c1)N=C(N1CCOCC1)c1ccccc1S2	%	76
Cc1ccc(CNC(=O)c2ccc3c(c2)N=C(c2ccc(Cl)cc2F)c2ccccc2S3)o1 [drawing 1039]	%	76
O=C(c1ccc2c(c1)N=C(c1ccc(Cl)cc1)c1ccccc1S2)N1CCCCC1	%	95
Cc1csc(CNC(=O)c2ccc3c(c2)N=C(c2cccc(C)n2)c2ccccc2S3)c1 [drawing 561]	%	85
Cc1cccc(C2=Nc3cc(C(=O)NC4CCC(F)(F)CC4)ccc3Sc3ccccc32)n1 [drawing 869]	%	74
CCCC1=Nc2cc(C(=O)NCCCN3CCN(C)CC3)ccc2Sc2ccccc21	%	120
O=C(NOc1cccc(Cl)c1)c1ccc2c(c1)N=C(C1CCCCC1)c1cc(F)ccc1S2	%	100
CCCCNC(=O)c1ccc2c(n1)N=C(c1ccccc1)c1ccccc1S2	%	98
